assay summary: AUC (0 to 24 hrs) in mouse at 5 mg/kg, iv
Type: ADME, organism-based
condition set: in vivo
observable: AUC(0-t) (ng·h/mL)
The reply should contain only the number, in ng·h/mL.

Req: I would be grateful if you could share the reported AUC(0-t) for O=C1CCC(Nc2cccc(N3CCN(CC4CCN(CC(=O)N5CCC(NC(=O)c6n[nH]cc6NC(=O)c6c(Cl)cccc6Cl)CC5)CC4)CC3)c2)C(=O)N1 (stereo unspecified) .
Resp: 2660

---

assay summary: AUC (0 to 24 hrs) in Sprague-Dawley rat at 5 mg/kg, iv measured after 12 hrs by LC-MS/MS analysis
Format: ADME, organism-based
condition set: in vivo
observable: AUC(0-t) at 12 h (ng·h/mL)
Record the value in ng·h/mL, omitting the unit from your answer.

Req: Which AUC(0-t) at 12 h value belongs to O=C1CCC(Nc2cccc(N3CCN(CC4CCN(CC(=O)N5CCC(NC(=O)c6n[nH]cc6NC(=O)c6c(Cl)cccc6Cl)CC5)CC4)CC3)c2)C(=O)N1 (stereo unspecified) ?
Resp: 2180
